tested on: Echinochloa oryzoides (Ard.) Fritsch.; test: Preemergence weed control under flooded paddy conditions, ECHORC (Watergrass (Calif.)); format: in vivo; settings: 0.1250 kg/ha; preemergence weeds, flooded paddy; herbicidal effect rating 0-9, three to four weeks after treatment
Binary call on ECHORC: TRUE from 7 upward, FALSE beneath that.

INSERT INTO assay_data (compound, class_name) VALUES
  ('Cn1c(C(F)(F)F)cc(=O)n(-c2ccc3snc(COC(=O)Cc4cccs4)c3c2)c1=O', 'FALSE'),
  ('COc1ccc(I)cc1-c1nsc2ccc(-n3c(=O)cc(C(F)(F)F)n(C)c3=O)cc12', 'TRUE'),
  ('Cn1c(C(F)(F)F)cc(=O)n(-c2ccc3snc(C(SCCCO)SCCCO)c3c2)c1=O', 'FALSE'),
  ('COc1ccc(CC(=O)OCc2nsc3ccc(-n4c(=O)cc(C(F)(F)F)n(C)c4=O)cc23)cc1', 'FALSE'),
  ('CC(OS(=O)(=O)C(C)C)c1nsc2ccc(-n3c(=O)cc(C(F)(F)F)n(C)c3=O)cc12 (centres unmarked)', 'FALSE'),
  ('CC(OS(=O)(=O)c1ccccc1)c1nsc2ccc(-n3c(=O)cc(C(F)(F)F)n(C)c3=O)cc12 (centres unmarked)', 'FALSE'),
  ('COCCOC(=O)c1nsc2ccc(-n3c(=O)cc(C(F)(F)F)n(C)c3=O)cc12', 'FALSE'),
  ('Cn1c(C(F)(F)F)cc(=O)n(-c2ccc3snc(C(=O)C(C)(C)C)c3c2)c1=O', 'TRUE'),
  ('Cn1c(C(F)(F)F)cc(=O)n(-c2ccc3snc(COC(=O)Cc4ccc(Cl)cc4)c3c2)c1=O', 'FALSE'),
  ('CCOC(=O)c1nsc2cc(F)c(-n3c(=O)cc(C(F)(F)F)n(C)c3=O)cc12', 'TRUE'),
  ('CCC(C#N)c1nsc2ccc(-n3c(=O)cc(C(F)(F)F)n(C)c3=O)cc12 (centres unmarked)', 'TRUE'),
  ('CONC(=O)c1nsc2ccc(-n3c(=O)cc(C(F)(F)F)n(C)c3=O)cc12', 'FALSE'),
  ('CCC(C#N)(CC)c1nsc2ccc(-n3c(=O)cc(C(F)(F)F)n(C)c3=O)cc12', 'TRUE'),
  ('Cc1ccc(OCC(=O)O)c(-c2noc3cc(F)c(-n4c(=O)cc(C(F)(F)F)n(C)c4=O)cc23)c1', 'TRUE');

----------
system: Oryza sativa, (L.) Tebonnet; experiment: Rice tolerance to post-transplant applications under flooded paddy conditions (Example 187), ORYSAT (Rice, Tebonnet); settings: 0.0625 kg/ha, rated three to four weeks after treatment
API: label(entry) gives rule met if the entry's herbicidal effect rating, ORYSAT (rice tolerance) is strictly smaller than 4; on equality or larger values it gives rule not met.

INSERT INTO results (compound, class_name) VALUES
  ('Cc1ccc(OCC(=O)N(C(C)C)C(C)C)c(-c2nsc3ccc(-n4c(=O)cc(C(F)(F)F)n(C)c4=O)cc23)c1', 'rule met'),
  ('Cn1c(C(F)(F)F)cc(=O)n(-c2ccc3snc(-c4ccccc4)c3c2)c1=O', 'rule not met'),
  ('COc1noc2ccc(-n3c(=O)cc(C(F)(F)F)n(C)c3=O)cc12', 'rule met'),
  ('Cc1ccc(OC2CC(C)OC2=O)c(-c2nsc3ccc(-n4c(=O)cc(C(F)(F)F)n(C)c4=O)cc23)c1 (racemic)', 'rule met'),
  ('CCOCCOCc1nsc2ccc(-n3c(=O)cc(C(F)(F)F)n(C)c3=O)cc12', 'rule not met'),
  ('COc1ccc(C)cc1-c1nsc2ccc(-n3c(=O)cc(C)n(C)c3=O)cc12', 'rule met'),
  ('C=CC(C)OCc1nsc2ccc(-n3c(=O)cc(C(F)(F)F)n(C)c3=O)cc12 (stereo not shown)', 'rule not met'),
  ('CCc1ccc(OC)c(-c2nsc3ccc(-n4c(=O)cc(C(F)(F)F)n(C)c4=O)cc23)c1', 'rule met'),
  ('Cc1ccc(OCC(=O)OCC#Cc2ccccc2)c(-c2nsc3ccc(-n4c(=O)cc(C(F)(F)F)n(C)c4=O)cc23)c1', 'rule met'),
  ('Cc1nsc2ccc(-n3c(=O)cc(C(F)(F)F)n(C)c3=O)cc12', 'rule not met'),
  ('C#CCNC(=O)COc1ccc(C)cc1-c1noc2ccc(-n3c(=O)cc(C(F)(F)F)n(C)c3=O)cc12', 'rule met'),
  ('Cn1c(C(F)(F)F)cc(=O)n(-c2ccc3snc(COCCCl)c3c2)c1=O', 'rule not met'),
  ('Cc1ccc(OCC(=O)OC(C)(C)C)c(-c2nsc3ccc(-n4c(=O)cc(C(F)(F)F)n(C)c4=O)cc23)c1', 'rule met');

----------
system: Cyperus serotinus, Rottb.; assay: Preemergence weed control under flooded paddy conditions, CYPSE (Flatsedge); assay type: in vivo; conditions: Rate 0.0320 kg/ha, preemergence, rated three to four weeks after treatment
# Lookup of reported CYPSE herbicidal effect rating keyed by entry
Property measured: CYPSE herbicidal effect rating

INSERT INTO assay_data (molecule, measurement) VALUES
  ('Cn1c(C(F)(F)F)cc(=O)n(-c2ccc3snc(-c4ccc(OCC(=O)O)cc4)c3c2)c1=O', 9.0),
  ('CC(C)OP(=O)(Cc1nsc2ccc(-n3c(=O)cc(C(F)(F)F)n(C)c3=O)cc12)OC(C)C', 9.0),
  ('Cc1ccc(OCC(=O)NS(=O)(=O)c2sc3ccc(Cl)cc3c2C)c(-c2nsc3ccc(-n4c(=O)cc(C(F)(F)F)n(C)c4=O)cc23)c1', 0.0),
  ('Cn1c(C(F)(F)F)cc(=O)n(-c2ccc3snc(C(Br)C#N)c3c2)c1=O (stereo not drawn)', 4.0),
  ('COC(=O)COc1ccc(-c2nsc3ccc(-n4c(=O)cc(C(F)(F)F)n(C)c4=O)cc23)cc1', 0.0),
  ('Cn1c(C(F)(F)F)cc(=O)n(-c2ccc3snc(CC=NO)c3c2)c1=O', 0.0);

----------
test system: Sagittaria pygmaea, L.; assay: Preemergence weed control under flooded paddy conditions, SAGPY (Arrowhead (Pygmaea)); assay type: in vivo; conditions: Rate 0.2500 kg/ha; preemergence, flooded paddy; rated 3-4 weeks after treatment; also: meaning of each grade not given here
# Lookup of reported herbicidal effect rating, SAGPY keyed by entry
Property measured: herbicidal effect rating, SAGPY

INSERT INTO results (molecule_smiles, property_measured, measurement) VALUES
  ('Cc1ccc(OC(C)(C)C(=O)OCCCl)c(-c2nsc3ccc(-n4c(=O)cc(C(F)(F)F)n(C)c4=O)cc23)c1', 'herbicidal effect rating, SAGPY', 9.0),
  ('CC=CCOC(=O)C(C)(C)Oc1ccc(C)cc1-c1nsc2ccc(-n3c(=O)cc(C(F)(F)F)n(C)c3=O)cc12', 'herbicidal effect rating, SAGPY', 9.0),
  ('Cc1ccc(OC(C)(C)C(=O)OC(C)C)c(-c2nsc3ccc(-n4c(=O)cc(C(F)(F)F)n(C)c4=O)cc23)c1', 'herbicidal effect rating, SAGPY', 7.0),
  ('CCCCCCCCCOC(=O)COc1ccc(C)cc1-c1nsc2ccc(-n3c(=O)cc(C(F)(F)F)n(C)c3=O)cc12', 'herbicidal effect rating, SAGPY', 0.0);

----------
test system: Cyperus iria; assay: Preemergence weed control under flooded paddy conditions, CYPIR (Rice Flatsedge); format: in vivo; details: 0.1250 kg/ha; preemergence weeds, flooded paddy; rated three to four weeks after treatment; also: meaning of each grade not given here
# Lookup of reported herbicidal effect rating, CYPIR keyed by entry
Property measured: herbicidal effect rating, CYPIR

INSERT INTO results (molecule_smiles, measurement) VALUES
  ('C=CCOCc1nsc2ccc(-n3c(=O)cc(C(F)(F)F)n(C)c3=O)cc12', 1.0),
  ('CCc1nsc2ccc(-n3c(=O)cc(C(F)(F)F)n(C)c3=O)cc12', 9.0),
  ('COCCOC(=O)COc1ccc(C)cc1-c1nsc2ccc(-n3c(=O)cc(C(F)(F)F)n(C)c3=O)cc12', 2.0),
  ('C#CCNC(=O)COc1ccc(C)cc1-c1noc2ccc(-n3c(=O)cc(C(F)(F)F)n(C)c3=O)cc12', 0.0),
  ('Cn1c(C(F)(F)F)cc(=O)n(-c2ccc3snc(COCC(F)F)c3c2)c1=O', 9.0),
  ('COC(=O)C=CCOc1ccc(C)cc1-c1nsc2ccc(-n3c(=O)cc(C(F)(F)F)n(C)c3=O)cc12', 0.0);

----------
# Lookup of reported ECHORC keyed by entry
test system: Echinochloa oryzoides (Ard.) Fritsch.; assay: Preemergence weed control under flooded paddy conditions, ECHORC (Watergrass (Calif.)); format: in vivo; conditions: 0.0620 kg/ha; preemergence weeds, flooded paddy; herbicidal effect rating 0-9, three to four weeks after treatment
Property measured: ECHORC

INSERT INTO results (molecule, measurement) VALUES
  ('CCOCOCc1nsc2ccc(-n3c(=O)cc(C(F)(F)F)n(C)c3=O)cc12 [Example 455]', 9.0),
  ('COC(=O)COc1ccc(C)cc1-c1nsc2cc(Cl)c(-n3c(=O)cc(C(F)(F)F)n(C)c3=O)cc12 [Example 443]', 5.0),
  ('Cn1c(C(F)(F)F)cc(=O)n(-c2ccc3snc(C(=O)Nc4nc(C(F)(F)F)c(Cl)s4)c3c2)c1=O [Example 439]', 3.0),
  ('Cn1c(C(F)(F)F)cc(=O)n(-c2ccc3snc(C(Br)S(=O)(=O)c4ccccc4)c3c2)c1=O (centres unmarked) [Example 407]', 3.0),
  ('Cc1ccc(OCC(=O)O)c(-c2noc3cc(F)c(-n4c(=O)cc(C(F)(F)F)n(C)c4=O)cc23)c1 [Example 425]', 9.0);
